System: Escherichia coli TOP10;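 note: peptides expressed intracellularly from a pBAD plasmid library in pooled LB shake-flask culture, induced with 0.3% L-arabinose, DNA abundance read by NGS, three biological replicates, DESeq2 with apeglm shrinkage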
assayRemarks: shrunken log2 fold change of peptide-encoding DNA abundance (4.5 h post-induction vs induction); higher = less antimicrobial activity (less host growth inhibition)
protocolConditions: time post-induction: 4.5 h; library: site-saturation at positions 5, 18, 19, 20
reportedProperty: shrunken log2 fold change
Provide a numeric answer; units are not to be included.

                     chain  recordedresult
0  RRIRLRPPRLPRPRPRPAISPRP           0.118
1  RRIRLRPPRLPRPRPRPPWIPRP           -0.35
2  RRIRTRPPRLPRPRPRPWGFPRP          0.0102
3  RRIRERPPRLPRPRPRPNRYPRP         -0.0565
4  RRIRLRPPRLPRPRPRPPYCPRP         -0.0882
5  RRIRSRPPRLPRPRPRPIHHPRP          -0.362
6  RRIRRRPPRLPRPRPRPVHIPRP         -0.0107
7  RRIRFRPPRLPRPRPRPFPSPRP          -0.179

The sequence listed as `RRIRCRPPRLPRPRPRPVLKPRP` shows shrunken log2 fold change equal to 0.181

The sequence listed as `RRIRQRPPRLPRPRPRPLINPRP` shows shrunken log2 fold change equal to -0.305

The sequence listed as `RRIRGRPPRLPRPRPRPMTHPRP` shows shrunken log2 fold change equal to 0.708

The sequence listed as `RRIRCRPPRLPRPRPRPNADPRP` shows shrunken log2 fold change equal to 0.342

The sequence listed as `RRIRNRPPRLPRPRPRPYAWPRP` shows shrunken log2 fold change equal to -0.141

The sequence listed as `RRIRLRPPRLPRPRPRPQNNPRP` shows shrunken log2 fold change equal to -0.585

The sequence listed as `RRIRWRPPRLPRPRPRPHFKPRP` shows shrunken log2 fold change equal to -0.179

Hello, the source for this data is the supplement of paper PMC9112550, in case you need it.
